Catalogue of IC50 readings, one per entry.
# experimental.system: BCRP (Homo sapiens, UniProt Q9UNQ0)
# Sequence (Q9UNQ0 whole entry): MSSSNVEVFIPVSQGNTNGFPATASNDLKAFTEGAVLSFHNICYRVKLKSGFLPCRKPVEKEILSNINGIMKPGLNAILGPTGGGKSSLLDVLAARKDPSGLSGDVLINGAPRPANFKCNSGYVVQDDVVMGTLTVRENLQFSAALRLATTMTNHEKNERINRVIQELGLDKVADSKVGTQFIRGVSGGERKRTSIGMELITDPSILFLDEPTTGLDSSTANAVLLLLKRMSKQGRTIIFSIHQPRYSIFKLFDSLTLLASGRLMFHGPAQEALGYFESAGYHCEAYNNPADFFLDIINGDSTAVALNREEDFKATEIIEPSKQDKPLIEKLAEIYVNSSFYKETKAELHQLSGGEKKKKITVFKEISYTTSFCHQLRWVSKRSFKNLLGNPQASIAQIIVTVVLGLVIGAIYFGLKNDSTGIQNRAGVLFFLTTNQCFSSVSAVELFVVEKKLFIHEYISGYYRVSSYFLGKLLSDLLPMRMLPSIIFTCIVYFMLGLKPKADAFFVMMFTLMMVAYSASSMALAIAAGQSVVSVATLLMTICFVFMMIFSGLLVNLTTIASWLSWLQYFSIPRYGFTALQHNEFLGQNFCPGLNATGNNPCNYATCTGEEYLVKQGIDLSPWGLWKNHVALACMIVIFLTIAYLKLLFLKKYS
# test.summary: BCRP-mediated methotrexate transport in membrane vesicles of BCRP-expressing Sf9 cells
Put your answer as a value accompanied by its unit after it.

// worked examples, IC50 included
{"smiles": "N#Cc1cc(-c2n[nH]c(-c3ccncc3)n2)ccn1", "IC50": "770 nM"}
{"smiles": "N#Cc1cc(-c2nc3cncnc3s2)ccc1Oc1ccc(F)cc1", "IC50": "1100 nM"}
{"smiles": "Cc1nc(-c2ccc(OCC(C)C)c(C#N)c2)sc1C(=O)O", "IC50": "250 nM"}

Ask | # get_value(readout='IC50', item= `N#Cc1cc(-c2nc3cncnc3s2)ccc1Oc1ccccc1` )
Reply | 660 nM

Source listed as patent US8314085B2.
